assay_system: human Cav2.2 (Homo sapiens)
Sequence (Q00975 whole entry): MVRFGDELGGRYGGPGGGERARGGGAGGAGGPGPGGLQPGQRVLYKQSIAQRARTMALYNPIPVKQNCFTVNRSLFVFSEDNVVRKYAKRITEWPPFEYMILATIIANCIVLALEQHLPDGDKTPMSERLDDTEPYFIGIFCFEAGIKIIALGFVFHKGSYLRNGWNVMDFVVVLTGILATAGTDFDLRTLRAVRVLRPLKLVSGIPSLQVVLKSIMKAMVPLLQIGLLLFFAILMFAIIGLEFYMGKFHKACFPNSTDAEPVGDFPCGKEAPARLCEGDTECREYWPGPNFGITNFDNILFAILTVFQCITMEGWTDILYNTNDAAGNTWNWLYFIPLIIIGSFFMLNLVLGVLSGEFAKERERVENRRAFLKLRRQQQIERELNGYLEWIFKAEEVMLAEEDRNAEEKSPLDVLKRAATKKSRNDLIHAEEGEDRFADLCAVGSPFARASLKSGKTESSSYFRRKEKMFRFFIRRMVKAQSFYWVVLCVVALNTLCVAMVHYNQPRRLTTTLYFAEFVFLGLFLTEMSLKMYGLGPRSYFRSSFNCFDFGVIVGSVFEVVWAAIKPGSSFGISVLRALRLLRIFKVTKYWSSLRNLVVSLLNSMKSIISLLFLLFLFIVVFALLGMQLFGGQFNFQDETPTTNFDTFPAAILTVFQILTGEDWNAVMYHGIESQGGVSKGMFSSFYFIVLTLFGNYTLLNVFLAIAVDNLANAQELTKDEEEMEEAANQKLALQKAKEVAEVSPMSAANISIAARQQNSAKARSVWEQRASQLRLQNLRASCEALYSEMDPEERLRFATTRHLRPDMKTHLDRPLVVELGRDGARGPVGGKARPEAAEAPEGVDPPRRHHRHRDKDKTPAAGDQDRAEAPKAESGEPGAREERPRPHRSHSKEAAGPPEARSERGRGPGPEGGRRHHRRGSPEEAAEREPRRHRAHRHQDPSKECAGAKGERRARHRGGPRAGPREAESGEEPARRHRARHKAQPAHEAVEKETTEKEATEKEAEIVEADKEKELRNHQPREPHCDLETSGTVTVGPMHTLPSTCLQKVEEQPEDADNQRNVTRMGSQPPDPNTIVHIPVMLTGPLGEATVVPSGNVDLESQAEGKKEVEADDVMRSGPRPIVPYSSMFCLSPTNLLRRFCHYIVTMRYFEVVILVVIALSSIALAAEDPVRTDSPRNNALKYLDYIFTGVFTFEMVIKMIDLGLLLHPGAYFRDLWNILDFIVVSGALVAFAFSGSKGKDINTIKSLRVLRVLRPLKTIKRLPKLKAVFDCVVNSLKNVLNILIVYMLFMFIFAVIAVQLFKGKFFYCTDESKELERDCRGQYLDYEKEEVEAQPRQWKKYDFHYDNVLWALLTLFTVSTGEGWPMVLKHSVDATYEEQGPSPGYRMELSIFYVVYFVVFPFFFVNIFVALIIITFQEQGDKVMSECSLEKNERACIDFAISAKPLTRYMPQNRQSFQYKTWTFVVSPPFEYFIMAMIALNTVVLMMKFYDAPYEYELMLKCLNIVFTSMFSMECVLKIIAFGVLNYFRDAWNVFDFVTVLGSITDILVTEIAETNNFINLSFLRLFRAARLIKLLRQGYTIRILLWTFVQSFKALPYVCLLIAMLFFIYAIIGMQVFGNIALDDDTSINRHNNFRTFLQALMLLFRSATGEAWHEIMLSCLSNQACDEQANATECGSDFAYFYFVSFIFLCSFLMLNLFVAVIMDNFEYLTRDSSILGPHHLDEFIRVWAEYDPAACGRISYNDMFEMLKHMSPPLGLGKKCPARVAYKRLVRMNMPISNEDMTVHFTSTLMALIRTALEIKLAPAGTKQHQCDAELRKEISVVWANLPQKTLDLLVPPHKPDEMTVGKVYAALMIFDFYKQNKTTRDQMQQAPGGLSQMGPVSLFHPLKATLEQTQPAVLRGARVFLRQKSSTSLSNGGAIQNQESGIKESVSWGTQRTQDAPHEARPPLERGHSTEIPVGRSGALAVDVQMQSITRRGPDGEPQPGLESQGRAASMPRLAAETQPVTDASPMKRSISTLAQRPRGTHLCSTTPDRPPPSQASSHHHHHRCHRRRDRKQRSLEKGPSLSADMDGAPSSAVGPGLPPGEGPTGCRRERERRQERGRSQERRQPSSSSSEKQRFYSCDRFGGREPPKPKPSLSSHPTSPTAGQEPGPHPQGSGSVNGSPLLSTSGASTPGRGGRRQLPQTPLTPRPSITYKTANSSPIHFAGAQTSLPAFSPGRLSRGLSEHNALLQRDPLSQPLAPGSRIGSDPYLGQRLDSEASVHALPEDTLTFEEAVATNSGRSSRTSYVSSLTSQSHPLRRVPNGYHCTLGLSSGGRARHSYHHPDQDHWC
Sequence (P54289 25-951 partner limits assumed): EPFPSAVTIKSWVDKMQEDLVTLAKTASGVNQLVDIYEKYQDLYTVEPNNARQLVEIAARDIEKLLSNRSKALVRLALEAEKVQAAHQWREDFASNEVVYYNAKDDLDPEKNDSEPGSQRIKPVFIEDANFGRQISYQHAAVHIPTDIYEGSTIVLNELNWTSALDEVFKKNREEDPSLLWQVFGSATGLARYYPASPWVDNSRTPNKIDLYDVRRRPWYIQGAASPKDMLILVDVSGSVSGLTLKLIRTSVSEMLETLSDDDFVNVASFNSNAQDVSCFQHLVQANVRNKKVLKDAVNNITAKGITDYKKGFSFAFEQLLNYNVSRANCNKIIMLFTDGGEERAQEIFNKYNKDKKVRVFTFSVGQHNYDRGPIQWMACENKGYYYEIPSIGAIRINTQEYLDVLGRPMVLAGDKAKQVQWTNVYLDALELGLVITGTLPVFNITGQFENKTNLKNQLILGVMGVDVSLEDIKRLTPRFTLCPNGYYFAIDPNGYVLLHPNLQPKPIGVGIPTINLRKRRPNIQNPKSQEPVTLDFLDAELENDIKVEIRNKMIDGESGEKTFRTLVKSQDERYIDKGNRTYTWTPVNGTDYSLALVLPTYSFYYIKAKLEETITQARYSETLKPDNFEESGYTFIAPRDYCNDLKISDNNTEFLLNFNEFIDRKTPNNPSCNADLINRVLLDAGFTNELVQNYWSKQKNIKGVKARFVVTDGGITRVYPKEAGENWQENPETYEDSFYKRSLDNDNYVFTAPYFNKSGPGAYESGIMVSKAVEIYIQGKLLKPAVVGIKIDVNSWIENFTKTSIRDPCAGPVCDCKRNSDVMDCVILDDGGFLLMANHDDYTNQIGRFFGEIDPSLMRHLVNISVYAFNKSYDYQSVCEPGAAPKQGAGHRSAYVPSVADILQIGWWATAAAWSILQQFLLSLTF
Sequence (P54289 952-1103 partner limits assumed): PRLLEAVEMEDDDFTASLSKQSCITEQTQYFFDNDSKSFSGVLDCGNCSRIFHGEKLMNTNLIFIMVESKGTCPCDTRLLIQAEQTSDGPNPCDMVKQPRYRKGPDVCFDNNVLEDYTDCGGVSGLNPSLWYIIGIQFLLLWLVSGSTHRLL
Sequence (P54284 whole entry partner): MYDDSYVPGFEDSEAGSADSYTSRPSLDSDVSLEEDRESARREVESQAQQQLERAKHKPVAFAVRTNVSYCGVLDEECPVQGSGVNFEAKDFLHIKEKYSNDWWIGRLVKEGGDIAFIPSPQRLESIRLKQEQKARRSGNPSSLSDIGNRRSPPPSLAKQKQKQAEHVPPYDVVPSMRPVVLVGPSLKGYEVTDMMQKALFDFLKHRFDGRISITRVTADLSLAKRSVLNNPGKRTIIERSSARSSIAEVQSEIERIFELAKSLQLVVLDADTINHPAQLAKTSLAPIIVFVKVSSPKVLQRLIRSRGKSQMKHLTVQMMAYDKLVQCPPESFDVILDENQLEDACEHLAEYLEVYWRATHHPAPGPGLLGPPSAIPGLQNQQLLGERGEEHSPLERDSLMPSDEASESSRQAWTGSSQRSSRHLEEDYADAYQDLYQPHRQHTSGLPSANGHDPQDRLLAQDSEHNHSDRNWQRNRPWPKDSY
measurement_notes: Assessment of calcium channel activity using FLIPR (Ca2+ influx in IMR32 cells)
test_settings: IMR32 cells endogenously expressing human Cav2.2; 60 minute pre-incubation; 2 μM nifedipine; depolarized with 80 mM KCl, 5 mM CaCl2
metric_name: IC50 (nM)
// note: answer is a bare numeric in nM

{"molecule": "O=C(CN1CCC(c2ccccc2)(c2ccccc2)C1=O)NCC(c1ccccc1)c1ccccc1", "assay_system": "human Cav2.2 (Homo sapiens)", "metric_name": "IC50", "display_unit": "nM", "observed_value": 870}
{"molecule": "O=C1N(Cc2nc(-c3ccc(Cl)nc3)no2)CCC1(c1ccccc1)c1ccccc1", "assay_system": "human Cav2.2 (Homo sapiens)", "metric_name": "IC50", "display_unit": "nM", "observed_value": 2780}
{"molecule": "COc1cc(CN2CCN(CCCN3CCCC(c4cccc(OC)c4)(C(C)C)C3=O)CC2)cc(OC)c1 (centres unmarked)", "assay_system": "human Cav2.2 (Homo sapiens)", "metric_name": "IC50", "display_unit": "nM", "observed_value": 670}
{"molecule": "CC(CNC(=O)CN1CCC(c2ccccc2)(c2ccccc2)C1=O)(c1ccccc1)c1ccccc1", "assay_system": "human Cav2.2 (Homo sapiens)", "metric_name": "IC50", "display_unit": "nM", "observed_value": 900}
{"molecule": "COc1ccc(C2(c3ccc(OC)cc3)CCCN(CCN(C)C3Cc4ccccc4C3)C2=O)cc1", "assay_system": "human Cav2.2 (Homo sapiens)", "metric_name": "IC50", "display_unit": "nM", "observed_value": 3190}

# IC50 lookup, item "O=C(CN1CCC(c2ccccc2)(c2ccccc2)C1=O)Nc1ccc(C(F)(F)F)nc1"
8840

# IC50 lookup, item "O=C(CN1CCC(c2ccc(F)cc2)(c2ccc(F)cc2)C1=O)NC1CN(Cc2ccc(C(F)(F)F)c(F)c2)C1"
1740

Fill blank: measured IC50 of the molecule O=C1C(c2ccc(F)cc2)CCN1Cc1nc(-c2ccc(C(F)(F)F)nc2)no1 (centres unmarked) is ____.
12400
